IC50 reference
# assayed target: Renin (Homo sapiens)
# Sequence (P00797 whole entry): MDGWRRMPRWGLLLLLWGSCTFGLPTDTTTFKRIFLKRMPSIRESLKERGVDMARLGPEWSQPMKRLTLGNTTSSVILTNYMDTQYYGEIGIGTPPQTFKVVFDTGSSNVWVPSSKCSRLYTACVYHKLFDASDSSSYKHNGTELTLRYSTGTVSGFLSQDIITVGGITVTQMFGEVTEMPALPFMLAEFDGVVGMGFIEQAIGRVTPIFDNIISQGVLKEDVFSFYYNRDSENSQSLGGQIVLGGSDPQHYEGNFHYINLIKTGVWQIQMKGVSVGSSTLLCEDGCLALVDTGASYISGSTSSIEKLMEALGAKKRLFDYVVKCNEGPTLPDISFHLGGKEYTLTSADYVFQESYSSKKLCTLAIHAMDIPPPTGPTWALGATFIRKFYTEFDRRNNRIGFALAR
# Type: cell-free, Plasma

{"mol": "CC(C)[C@H](C[C@H](O)[C@H](CC1CCCCC1)NC(=O)[C@H](Cc1c[nH]cn1)NC(=O)[C@H](Cc1ccccc1)NC(=O)OC(C)(C)C)NC(=O)OCCN1CCCC1", "display unit": "nM", "IC50": 28}
{"mol": "CCCC[C@H](O[C@@H](Cc1ccccc1)C(=O)N1CCC(OCOC)CC1)C(=O)N[C@@H](CC1CCCCC1)[C@@H](O)C[C@H](C(=O)NCCN(C)C)C(C)C", "display unit": "nM", "IC50": 5.7}
{"mol": "CCCC[C@H](O[C@@H](Cc1ccccc1)C(=O)N1CCC(OCOC)CC1)C(=O)N[C@@H](CC1CCCCC1)[C@@H](O)C[C@H](C(=O)N(C)CCCN(C)C)C(C)C", "display unit": "nM", "IC50": 270}
{"mol": "CC(C)[C@H](C[C@H](O)[C@H](CC1CCCCC1)NC(=O)[C@H](Cc1c[nH]cn1)NC(=O)[C@H](Cc1ccccc1)NC(=O)OC(C)(C)C)NC(=O)OCCc1ccccn1", "display unit": "nM", "IC50": 17}
{"mol": "CCCC[C@H](O[C@@H](Cc1ccccc1)C(=O)N1CCC(OCOC)CC1)C(=O)N[C@@H](CC1CCCCC1)[C@@H](O)C[C@H](C(=O)NCCC[N+](C)(C)[O-])C(C)C", "display unit": "nM", "IC50": 5}
{"mol": "CCCC[C@H](O[C@@H](Cc1ccccc1)C(=O)N1CCC(OCOC)CC1)C(=O)N[C@@H](CC1CCCCC1)[C@@H](O)C[C@H](NC(=O)OCCN(C)C)C(C)C", "display unit": "nM", "IC50": 8.3}
{"mol": "CCCC[C@H](O[C@@H](Cc1ccccc1)C(=O)N1CCC(OCOC)CC1)C(=O)N[C@@H](CC1CCCCC1)[C@@H](O)C[C@H](C(=O)N1CCCN(C)CC1)C(C)C", "display unit": "nM", "IC50": 79}

----------
logD reference
# test details: Partition coefficient (logD7.4)
# reported conditions: octanol/water, pH 7.4

{"mol": "CCCC[C@H](O[C@@H](Cc1ccccc1)C(=O)N1CCC(OCOC)CC1)C(=O)N[C@@H](CC1CCCCC1)[C@@H](O)C[C@H](C(=O)NCCCn1ccnc1)C(C)C", "rel": "=", "logD": 4}
{"mol": "CCCC[C@H](O[C@@H](Cc1ccccc1)C(=O)N1CCC(OCOC)CC1)C(=O)N[C@@H](CC1CCCCC1)[C@@H](O)[C@@H](O)CC(C)C", "rel": "=", "logD": 4.8}
{"mol": "CCCC[C@H](O[C@@H](Cc1ccccc1)C(=O)N1CCC(OCOC)CC1)C(=O)N[C@@H](CC1CCCCC1)[C@@H](O)C[C@H](NC(=O)OCCN(C)C)C(C)C", "rel": ">", "logD": 4}
{"mol": "CCCC[C@H](O[C@@H](Cc1ccccc1)C(=O)N1CCC(OCOC)CC1)C(=O)N[C@@H](CC1CCCCC1)[C@@H](O)C[C@H](NC(=O)OCCc1ccccn1)C(C)C", "rel": "=", "logD": 3.4}
{"mol": "CCCC[C@H](O[C@@H](Cc1ccccc1)C(=O)N1CCC(OCOC)CC1)C(=O)N[C@@H](CC1CCCCC1)[C@@H](O)C[C@H](C(=O)NCCCN1CCOCC1)C(C)C", "rel": "=", "logD": 4.3}
{"mol": "CCCC[C@H](O[C@@H](Cc1ccccc1)C(=O)N1CCC(OCOC)CC1)C(=O)N[C@@H](CC1CCCCC1)[C@@H](O)C[C@H](C(=O)NCCN(C)C)C(C)C", "rel": "=", "logD": 4.3}
